Target: EGFR (Homo sapiens, UniProt P00533)
Construct: Kinases are expressed as either kinase domains or full length constructs; made in house
Sequence (P00533 25-1210, species assumed): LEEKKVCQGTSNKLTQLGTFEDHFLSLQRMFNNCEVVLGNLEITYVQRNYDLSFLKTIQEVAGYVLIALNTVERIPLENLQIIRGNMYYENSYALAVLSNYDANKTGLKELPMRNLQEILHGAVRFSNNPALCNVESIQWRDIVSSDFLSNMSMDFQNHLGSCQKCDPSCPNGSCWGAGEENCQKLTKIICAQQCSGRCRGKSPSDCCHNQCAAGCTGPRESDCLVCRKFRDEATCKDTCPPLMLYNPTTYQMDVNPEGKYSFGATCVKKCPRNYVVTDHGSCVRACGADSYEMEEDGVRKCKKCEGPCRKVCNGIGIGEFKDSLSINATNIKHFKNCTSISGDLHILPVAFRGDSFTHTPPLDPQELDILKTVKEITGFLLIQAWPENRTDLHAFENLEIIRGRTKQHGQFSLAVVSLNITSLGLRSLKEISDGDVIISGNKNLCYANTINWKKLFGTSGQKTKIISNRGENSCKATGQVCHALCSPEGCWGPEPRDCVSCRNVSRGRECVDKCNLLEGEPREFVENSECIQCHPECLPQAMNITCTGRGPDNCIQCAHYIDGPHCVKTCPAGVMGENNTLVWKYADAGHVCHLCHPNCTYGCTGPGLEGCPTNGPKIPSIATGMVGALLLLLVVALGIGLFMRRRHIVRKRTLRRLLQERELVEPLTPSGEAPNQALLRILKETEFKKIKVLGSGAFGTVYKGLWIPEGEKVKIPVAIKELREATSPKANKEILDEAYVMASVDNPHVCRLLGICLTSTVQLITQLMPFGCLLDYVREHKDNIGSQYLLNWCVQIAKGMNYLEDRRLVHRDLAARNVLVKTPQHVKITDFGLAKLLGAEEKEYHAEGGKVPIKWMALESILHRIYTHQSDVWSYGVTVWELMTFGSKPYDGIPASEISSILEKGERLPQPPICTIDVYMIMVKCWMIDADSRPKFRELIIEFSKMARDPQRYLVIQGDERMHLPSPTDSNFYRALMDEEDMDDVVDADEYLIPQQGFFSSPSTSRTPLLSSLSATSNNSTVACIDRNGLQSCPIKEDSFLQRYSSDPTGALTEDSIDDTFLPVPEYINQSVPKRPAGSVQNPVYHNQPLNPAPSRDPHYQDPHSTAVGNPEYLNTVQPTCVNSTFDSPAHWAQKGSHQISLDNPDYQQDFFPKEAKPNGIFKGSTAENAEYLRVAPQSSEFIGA
Experiment: Kinase inhibition assay (33P transfer), EGFR
Assay type: biochemical
Details: Table 2, class symbols A-E; read-out: EGFR-1
pIC50: −log10 of the molar value.
Hi there, I'd appreciate the recorded pIC50 for every entry that follows.

Working through the 4 molecules below one at a time, give pIC50 for each.
1. CC(C)Nc1ncccc1-c1ncnc(Nc2ccc3[nH]ncc3c2)n1 [Compound 1116]
2. FC(F)(F)Sc1cccc(Nc2ncnc(Nc3cc(-c4ccco4)[nH]n3)n2)c1 [Compound 827]
3. COC(=O)c1ccc(-c2cc(Nc3ncnc(Nc4cccc(S(=O)(=O)O)c4)n3)[nH]n2)cc1 [Compound 882]
4. COc1ccc(Nc2ncnc(N(C)C3CCN(Cc4ccccc4)C3)n2)cc1OC (stereo not shown) [Compound 802]

Output line:
1. 5.16 to 5.94
2. > 6.02
3. 5.29 to 6.07
4. < 4.97

// data source = patent US7074789B2
